test.target: recombinant human dopamine transporter (hDAT) (Homo sapiens, UniProt Q01959)
Sequence (Q01959 whole entry): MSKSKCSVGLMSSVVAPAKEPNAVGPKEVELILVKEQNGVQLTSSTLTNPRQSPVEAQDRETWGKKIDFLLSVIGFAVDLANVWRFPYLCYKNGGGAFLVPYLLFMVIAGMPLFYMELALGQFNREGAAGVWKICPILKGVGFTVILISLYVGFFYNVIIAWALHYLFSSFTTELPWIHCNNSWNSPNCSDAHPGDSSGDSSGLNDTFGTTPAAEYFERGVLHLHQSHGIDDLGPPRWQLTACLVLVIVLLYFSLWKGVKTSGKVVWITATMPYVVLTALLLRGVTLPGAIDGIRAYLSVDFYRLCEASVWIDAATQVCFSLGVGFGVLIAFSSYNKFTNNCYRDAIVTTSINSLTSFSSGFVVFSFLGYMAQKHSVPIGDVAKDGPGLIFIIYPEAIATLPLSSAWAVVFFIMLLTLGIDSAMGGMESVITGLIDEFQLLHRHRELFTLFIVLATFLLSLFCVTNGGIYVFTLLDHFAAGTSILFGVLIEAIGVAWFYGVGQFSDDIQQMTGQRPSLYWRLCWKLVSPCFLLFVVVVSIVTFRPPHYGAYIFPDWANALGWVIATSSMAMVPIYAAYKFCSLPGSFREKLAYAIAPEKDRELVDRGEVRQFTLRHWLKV
test.description: [125I]RTI-55 binding, HEK-hDAT
applied.conditions: used in Cheng-Prusoff equation
experimental.endpoint: Kd (nM)
Expressed in nM, but write only the number.

Kd for COC(=O)[C@H]1[C@@H](c2ccc(I)cc2)C[C@@H]2CC[C@H]1N2C [[^125I]RTI-55] ? 1.2

----------
test.target: human 5HT2C receptor (Homo sapiens, UniProt P28335)
Sequence (P28335 33-458): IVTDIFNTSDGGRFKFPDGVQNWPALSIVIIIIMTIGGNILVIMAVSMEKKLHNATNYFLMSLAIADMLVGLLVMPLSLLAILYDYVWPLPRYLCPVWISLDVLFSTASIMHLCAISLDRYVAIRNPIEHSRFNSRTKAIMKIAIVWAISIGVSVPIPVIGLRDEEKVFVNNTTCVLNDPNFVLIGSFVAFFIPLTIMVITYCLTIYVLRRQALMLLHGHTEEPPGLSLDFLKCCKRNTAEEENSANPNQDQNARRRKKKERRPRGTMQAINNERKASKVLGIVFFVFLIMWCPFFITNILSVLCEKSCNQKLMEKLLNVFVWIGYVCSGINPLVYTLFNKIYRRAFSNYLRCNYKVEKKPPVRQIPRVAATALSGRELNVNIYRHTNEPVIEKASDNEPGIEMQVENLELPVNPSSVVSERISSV
experimental.endpoint: Kd (nM)
Quick note: give the figure in nM, leave out the unit.

Given COc1cc(CC(C)N)c(OC)cc1I (stereo not shown) [[^125I] DOI] , state its recorded Kd. 4.18
